Hey, just so you know, these numbers are from ChEMBL document CHEMBL3608229.

- Test system: Enterococcus faecium
- test.method.notes: Antibacterial activity against vancomycin-resistant Enterococcus faecium 12-1 after 18 hrs by agar dilution method
- Type: functional
- condition.notes: 12-1, 18 h
quantity.name: MIC

The molecule `COC(=O)c1c(OC)cc2cc3c(c(O)c2c1C)C(=O)O[C@@H]3[C@@]1(O)[C@H](O)C(OC)=CC(=O)[C@@H]1O` showed MIC equal to > 64 µg/mL

The molecule `C[C@H]1COc2c(N3CCN(C)CC3)c(F)cc3c(=O)c(C(=O)O)cn1c23.C[C@H]1COc2c(N3CCN(C)CC3)c(F)cc3c(=O)c(C(=O)O)cn1c23.O` showed MIC equal to 32 µg/mL

The molecule `COC(=O)c1c(OC)cc2cc3c(c(O)c2c1C)C(=O)O[C@H]3[C@@]1(O)[C@H](O)C(OC)=CC(=O)[C@H]1OC` showed MIC equal to > 64 µg/mL

The molecule `COC(=O)c1c(OC)cc2cc3c(c(O)c2c1C)C(=O)O[C@@H]3[C@@]1(O)[C@H](O)C(OC)=CC(=O)[C@@H]1OC` showed MIC equal to > 64 µg/mL

The molecule `COC(=O)c1c(OC)cc2cc3c(c(O)c2c1C)C(=O)[C@@]1(O)C(OC)=CC(=O)[C@H](OC)[C@@]1(O)C3=O` showed MIC equal to > 64 µg/mL
